# target-under-test: EnaH-EVH1 domain (Homo sapiens (Human))
# Sequence (Q8N8S7 1-111): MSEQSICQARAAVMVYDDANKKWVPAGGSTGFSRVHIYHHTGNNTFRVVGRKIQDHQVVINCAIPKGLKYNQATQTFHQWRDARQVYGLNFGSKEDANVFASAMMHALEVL
# measurement-description: Binding affinity to the EnaH-EVH1 domain by fluorescence titration (FT)
# experimental-context: EnaH-EVH1 domain; standard errors in brackets; read-out: FT Kd
property-name: Kd (µM)
Numbers only; they are read as µM.

get_value(item= CC[C@@H]1C=C[C@H]2CCN(C(=O)[C@@H]3CC[C@H]4C=C[C@]5(CCCN5C(=O)[C@H](Cc5ccccc5Cl)NC(C)=O)C(=O)N43)[C@@H]2C(=O)N1CC(=O)OC [Ligand 247] , readout=Kd) returns 0.47

* * *

Parameter Kd: see the listing below.
# target-under-test: EnaH-EVH1 domain (Homo sapiens (Human))
# measurement-description: Binding affinity to the EnaH-EVH1 domain by fluorescence titration (FT)
# experimental-context: EnaH-EVH1 domain; fluorescence titration, Table 3; read-out: KD
Numbers only; they are read as nM.

Please review the following examples before continuing.
COC(=O)CN1C(=O)[C@@H]2[C@@H](C=C[C@H]1CC(C)C)CCN2C(=O)[C@@H]1CC[C@@H]2C=C[C@H]3CCN(C(=O)[C@H](Cc4ccccc4Cl)NC(C)=O)[C@@H]3C(=O)N21 [Ac-[2Cl-Phe]-[ProM-1]-[ProM-17]-OMe] | 2200
COC(=O)CN1C(=O)[C@@H]2[C@@H](C=C[C@H]1CC(C)C)CCN2C(=O)[C@@H]1CC[C@H]2C=C[C@]3(CCCN3C(=O)[C@H](Cc3ccccc3Cl)NC(C)=O)C(=O)N21 [Ac-[2Cl-Phe]-[ProM-2]-[ProM-17]-OMe] | 540
CCC[C@@H]1C=C[C@H]2CCN(C(=O)[C@@H]3CC[C@@H]4C=C[C@H]5CCN(C(=O)[C@H](Cc6ccccc6Cl)NC(C)=O)[C@@H]5C(=O)N43)[C@@H]2C(=O)N1CC(=O)OC [Ac-[2Cl-Phe]-[ProM-1]-[ProM-21]-OMe] | 2100
CC[C@@H]1C=C[C@H]2CCN(C(=O)[C@@H]3CC[C@@H]4C=C[C@H]5CCN(C(=O)[C@H](Cc6ccccc6Cl)NC(C)=O)[C@@H]5C(=O)N43)[C@@H]2C(=O)N1CC(=O)OC [Ac-[2Cl-Phe]-[ProM-1]-[ProM-15]-OMe] | 900
CC[C@@H]1C=C[C@H]2CCN(C(=O)[C@@H]3CC[C@H]4C=C[C@]5(CCCN5C(=O)[C@H](Cc5ccccc5Cl)NC(C)=O)C(=O)N43)[C@@H]2C(=O)N1CC(=O)OC | 470

get_value(item= CCC[C@@H]1C=C[C@H]2CCN(C(=O)[C@@H]3CC[C@H]4C=C[C@]5(CCCN5C(=O)[C@H](Cc5ccccc5Cl)NC(C)=O)C(=O)N43)[C@@H]2C(=O)N1CC(=O)OC [Ac-[2Cl-Phe]-[ProM-2]-[ProM-21]-OMe] , readout=Kd) returns 260
